These data points were gathered from patent US6500417.

Below is a list of entries, each paired with its recorded REL. SPEC. BIOLOGICAL ACTIVITY (DNA synthesis of AML193 cells) value.
Assay target: IL-3 receptor (human, UniProt P26951 19-378; P32927 17-897)
Sequence (P26951 19-378, chain 1 of 2): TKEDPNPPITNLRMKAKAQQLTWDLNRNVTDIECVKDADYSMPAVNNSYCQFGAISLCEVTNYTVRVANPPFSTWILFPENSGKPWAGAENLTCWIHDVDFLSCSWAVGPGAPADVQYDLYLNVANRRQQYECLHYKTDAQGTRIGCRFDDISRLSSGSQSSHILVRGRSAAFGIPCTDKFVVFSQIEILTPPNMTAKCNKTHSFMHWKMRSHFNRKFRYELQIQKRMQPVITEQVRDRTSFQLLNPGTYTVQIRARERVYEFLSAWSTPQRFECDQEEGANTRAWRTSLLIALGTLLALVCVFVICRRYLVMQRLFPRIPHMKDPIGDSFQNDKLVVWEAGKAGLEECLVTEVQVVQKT
Sequence (P32927 17-897, chain 2 of 2): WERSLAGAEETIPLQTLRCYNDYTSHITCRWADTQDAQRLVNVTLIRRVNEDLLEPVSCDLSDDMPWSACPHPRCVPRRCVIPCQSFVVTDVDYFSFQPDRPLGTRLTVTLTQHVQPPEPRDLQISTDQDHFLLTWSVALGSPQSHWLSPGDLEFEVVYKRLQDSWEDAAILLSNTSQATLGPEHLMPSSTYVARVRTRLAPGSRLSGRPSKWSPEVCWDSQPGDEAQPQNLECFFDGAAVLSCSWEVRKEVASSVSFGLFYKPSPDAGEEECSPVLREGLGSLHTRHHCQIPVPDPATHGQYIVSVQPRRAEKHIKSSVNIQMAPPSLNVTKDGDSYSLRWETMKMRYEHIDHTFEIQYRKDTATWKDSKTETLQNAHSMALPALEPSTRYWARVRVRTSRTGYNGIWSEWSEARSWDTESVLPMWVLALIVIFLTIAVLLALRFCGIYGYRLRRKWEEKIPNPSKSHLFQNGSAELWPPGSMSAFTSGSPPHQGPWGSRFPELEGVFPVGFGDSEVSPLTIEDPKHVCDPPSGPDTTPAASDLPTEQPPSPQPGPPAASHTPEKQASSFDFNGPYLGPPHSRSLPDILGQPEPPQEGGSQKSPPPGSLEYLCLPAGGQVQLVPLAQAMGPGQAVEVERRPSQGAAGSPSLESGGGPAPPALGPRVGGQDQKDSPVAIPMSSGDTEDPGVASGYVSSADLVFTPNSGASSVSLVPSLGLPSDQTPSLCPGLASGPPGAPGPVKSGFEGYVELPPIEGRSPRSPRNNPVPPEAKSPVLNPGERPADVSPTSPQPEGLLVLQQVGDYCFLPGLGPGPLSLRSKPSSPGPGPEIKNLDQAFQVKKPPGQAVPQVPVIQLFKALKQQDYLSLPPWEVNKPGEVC
Experiment: cell-based or functional assay

Past entries and their recorded results:
Note down REL. SPEC. BIOLOGICAL ACTIVITY (DNA synthesis of AML193 cells) recorded for hIL-3 deletion mutant 813 (deletion 66-80) (ligand, also called 4813; not shown: heterologous N-terminal leader of the E. coli fusion (pGB/IL-336: 12 aa; pGB/IL-339: 15 aa)) APMTQTTPLKTSWVNCSNMIDEIITHLKQPPLPLLDFNNLNGEDQDILMENNLRRPNLEAFNRAVLLPCLPLATAAPTRHPIHIKDGDWNEFRRKLTFYLKTLENAQAQQTTLSLAIF
2.4e-05 relative to reference IL-3

Report REL. SPEC. BIOLOGICAL ACTIVITY (DNA synthesis of AML193 cells) for hIL-3 substitution mutant 1486 (Arg63Ala64→Pro63Gly64) (ligand, also called 63RA → PG; not shown: heterologous N-terminal leader of the E. coli fusion (pGB/IL-336: 12 aa; pGB/IL-339: 15 aa)) APMTQTTPLKTSWVNCSNMIDEIITHLKQPPLPLLDFNNLNGEDQDILMENNLRRPNLEAFNPGVKSLQNASAIESILKNLLPCLPLATAAPTRHPIHIKDGDWNEFRRKLTFYLKTLENAQAQQTTLSLAIF
9.8e-05 relative to reference IL-3

Answer with the recorded REL. SPEC. BIOLOGICAL ACTIVITY (DNA synthesis of AML193 cells) for the binder listed here: hIL-3 substitution mutant 1485 (Glu59→Lys59) (ligand, also called 59E → K; not shown: heterologous N-terminal leader of the E. coli fusion (pGB/IL-336: 12 aa; pGB/IL-339: 15 aa)) APMTQTTPLKTSWVNCSNMIDEIITHLKQPPLPLLDFNNLNGEDQDILMENNLRRPNLKAFNRAVKSLQNASAIESILKNLLPCLPLATAAPTRHPIHIKDGDWNEFRRKLTFYLKTLENAQAQQTTLSLAIF
0.011 relative to reference IL-3

Hello, please tell me recorded REL. SPEC. BIOLOGICAL ACTIVITY (DNA synthesis of AML193 cells) for this one: hIL-3 substitution mutant 1481 (Glu43Asp44→Lys43Arg44) (ligand, also called 43ED→KR; not shown: heterologous N-terminal leader of the E. coli fusion (pGB/IL-336: 12 aa; pGB/IL-339: 15 aa)) APMTQTTPLKTSWVNCSNMIDEIITHLKQPPLPLLDFNNLNGKRQDILMENNLRRPNLEAFNRAVKSLQNASAIESILKNLLPCLPLATAAPTRHPIHIKDGDWNEFRRKLTFYLKTLENAQAQQTTLSLAIF
< 0.00015 relative to reference IL-3

Give the measured REL. SPEC. BIOLOGICAL ACTIVITY (DNA synthesis of AML193 cells) for hIL-3 substitution mutant 1491 (Glu106→Lys106) (ligand, also called 106E → K; not shown: heterologous N-terminal leader of the E. coli fusion (pGB/IL-336: 12 aa; pGB/IL-339: 15 aa)) APMTQTTPLKTSWVNCSNMIDEIITHLKQPPLPLLDFNNLNGEDQDILMENNLRRPNLEAFNRAVKSLQNASAIESILKNLLPCLPLATAAPTRHPIHIKDGDWNKFRRKLTFYLKTLENAQAQQTTLSLAIF
0.00032 relative to reference IL-3

Please list REL. SPEC. BIOLOGICAL ACTIVITY (DNA synthesis of AML193 cells) recorded for the binder hIL-3 substitution mutant 905 (Cys84→Ala84) (ligand, also called 84C → A; not shown: heterologous N-terminal leader of the E. coli fusion (pGB/IL-336: 12 aa; pGB/IL-339: 15 aa)) APMTQTTPLKTSWVNCSNMIDEIITHLKQPPLPLLDFNNLNGEDQDILMENNLRRPNLEAFNRAVKSLQNASAIESILKNLLPALPLATAAPTRHPIHIKDGDWNEFRRKLTFYLKTLENAQAQQTTLSLAIF
0.00019 relative to reference IL-3

Kindly consider the entry below.
# return recorded REL. SPEC. BIOLOGICAL ACTIVITY (DNA synthesis of AML193 cells) for input hIL-3 substitution mutant 904 (Cys16→Ala16) (ligand, also called 16C → A; not shown: heterologous N-terminal leader of the E. coli fusion (pGB/IL-336: 12 aa; pGB/IL-339: 15 aa)) APMTQTTPLKTSWVNASNMIDEIITHLKQPPLPLLDFNNLNGEDQDILMENNLRRPNLEAFNRAVKSLQNASAIESILKNLLPCLPLATAAPTRHPIHIKDGDWNEFRRKLTFYLKTLENAQAQQTTLSLAIF
0.00024 relative to reference IL-3
